Assay: Confirmation of induction of cell death (PI staining, live cell ratio)
Type: cell-based
Conditions: human; KS-13 10 μg/mL, liquid-cultured 11 days
Where a SMILES comes first, the peptide text is derived from it.
result_type: viability at 264 h, 10 µg/mL (%)
Please state the figure in %; there is no need to write the unit.

Given the entry CC[C@H](C)[C@H](NC(=O)[C@@H](NC(=O)[C@H](CS)NC(=O)[C@@H]1CCCN1C(=O)CNC(=O)[C@H](CC(=O)O)NC(=O)[C@H](CCCCN)NC(=O)[C@H](CCCCN)NC(=O)[C@H](CCC(N)=O)NC(=O)[C@@H](N)CS)C(C)C)C(=O)N[C@@H](CC(N)=O)C(=O)NCC(=O)N[C@@H](CO)C(=O)O [KS-13] (H-CQKKDGPCVINGS-OH) , report its measured viability at 264 h, 10 µg/mL.
97.6
